# tested on: UniProt P21731
# Sequence (whole entry): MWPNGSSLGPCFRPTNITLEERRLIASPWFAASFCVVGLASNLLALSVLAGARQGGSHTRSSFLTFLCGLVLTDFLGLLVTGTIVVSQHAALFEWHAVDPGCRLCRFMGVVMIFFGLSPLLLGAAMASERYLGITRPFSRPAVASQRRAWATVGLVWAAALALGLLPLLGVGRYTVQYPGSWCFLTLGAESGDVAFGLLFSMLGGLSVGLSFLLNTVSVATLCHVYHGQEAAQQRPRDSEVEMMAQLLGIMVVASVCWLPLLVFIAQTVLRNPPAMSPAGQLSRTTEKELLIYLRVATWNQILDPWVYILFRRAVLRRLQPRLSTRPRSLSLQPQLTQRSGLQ
# protocol: Binding affinity for human Platelet Thromboxane A2 / Prostaglandin (TP), by radioligand competition binding assays using [3H]-SQ 29548 as radioligand. PR = potency ratio relative to TMQ
reported metric: PR
# output: bare number, no unit

Query: Endpoint output: PR of CC(=O)Nc1ccc(CC2NCCc3cc(O)c(O)cc32)cc1I (stereo not drawn) . Value?
Reply: 0.11

Query: # repeat for COc1c(I)cc(CC2NCCc3cc(O)c(O)cc32)cc1I (stereo not drawn)
Reply: 3.5

Query: Cool, now Nc1ccc(CC2NCCc3cc(O)c(O)cc32)cc1I (stereo not drawn)
Reply: 0.16

Query: Param item: Nc1c(I)cc(CC2NCCc3cc(O)c(O)cc32)cc1I (stereo not drawn)
Reply: 0.87

Query: Next entry: COc1cc(C[C@@H]2NCCc3cc(O)c(O)cc32)cc(OC)c1OC
Reply: 1

Query: Repeat with Oc1cc2c(cc1O)C(Cc1cc(I)c(I)c(I)c1)NCC2 (stereo not drawn)
Reply: 0.003

Query: Another compound to look at: O=C(Nc1ccc(CC2NCCc3cc(O)c(O)cc32)cc1I)c1ccccc1 (stereo not drawn)
Reply: 0.03

Query: Cool, now Oc1cc2c(cc1O)C(Cc1cc(C(F)(F)F)cc(C(F)(F)F)c1)NCC2 (stereo not drawn)
Reply: 0.002
